- Test system: A549
- test method notes: Antiproliferative activity against human A549 cells assessed as reduction in cell growth incubated for 48 hrs by MTT assay
- Format: functional, cell-based
- assay conditions: A549, 48 h
recorded endpoint: pIC50
Lab note — pIC50 values are minus log10 of concentrations in M.

Consider the reported pIC50 for these compounds:
- smiles repr: "CCOc1cc2c(-c3cccc(S(N)(=O)=O)c3)n[nH]c2cc1-c1cn[nH]c1"
  result value: 6.41
- smiles repr: "CCOc1cc2c(-c3ccc(C)c(S(N)(=O)=O)c3)n[nH]c2cc1-c1cnn(C)c1"
  result value: 6.41

Query: Requested read-out: pIC50. Entry: CCOc1cc2c(-c3cccc(S(N)(=O)=O)c3)n[nH]c2cc1-c1cnn(C)c1
Response: 6.41

Data provenance is ChEMBL document CHEMBL5584232.
